# Subject Of Test: dengue virus NS5 polymerase domain (Dengue virus type 2)
# Measurement Notes: Dengue polymerase assay (DENVpol)
# Test Parameters: 100 nM recombinant enzyme, 3 hours at 30° C., mean of several independent experiments
Reported Metric: IC50 (nM)
Express your answer in nM, writing the number without its unit.

Known IC50 results, listed for orientation:
- Compound: "N#C[C@@]1(c2ccc3c(N)ncnn23)O[C@H](COP(=O)(O)OP(=O)(O)OP(=O)(O)O)[C@@H](O)[C@H]1O [Compound C2, reference compound]"
  IC50 (nM): 3600
- Compound: "N#C[C@@]1(c2ccc3c(N)ncnn23)O[C@@](COP(=O)(O)OP(=O)(O)OP(=O)(O)O)(N=[N+]=[N-])[C@@H](O)[C@H]1O"
  IC50 (nM): 1100

Then this compound:
Q: # IC50 lookup, item "N#C[C@@]1(c2ccc3c(N)ncnn23)O[C@](F)(COP(=O)(O)OP(=O)(O)OP(=O)(O)O)[C@@H](O)[C@H]1O"
A: 1100

----------
# Measurement Notes: Cell viability (CC50) in the RSV replicon assay
# Test Parameters: human, HeLa-derived cells containing the stable RSV replicon, CellTiter-Glo
Reported Metric: CC50 at 7 days (µM)
Express your answer in µM, writing the number without its unit.

- Compound: "CC(C)OC(=O)[C@@H](C)NP(=O)(OC[C@@]1(N=[N+]=[N-])O[C@@](C#N)(c2ccc3c(N)ncnn23)[C@H](O)[C@@H]1O)Oc1ccccc1 (stereo partly drawn)"
  Reported Metric: "CC50 at 7 days"
  Measured: 13.6

Q: # CC50 at 7 days lookup, item CCC(CC)COC(=O)[C@@H](C)NP(=O)(OC[C@@]1(F)O[C@@](C#N)(c2ccc3c(N)ncnn23)[C@H](O)[C@@H]1O)Oc1ccccc1 (stereo partly drawn)
A: 8.1

Q: # CC50 at 7 days lookup, item CC(C)CCOC(=O)C[C@H](NP(=O)(OC[C@@]1(F)O[C@@](C#N)(c2ccc3c(N)ncnn23)[C@H](O)[C@@H]1O)Oc1ccccc1)C(=O)OCCC(C)C (stereo partly drawn)
A: 21

Q: # CC50 at 7 days lookup, item CC(C)OC(=O)[C@H](C)NP(=O)(OC[C@@]1(F)O[C@@](C#N)(c2ccc3c(N)ncnn23)[C@H](O)[C@@H]1O)Oc1ccccc1 (stereo partly drawn)
A: 43

----------
# Measurement Notes: in vitro
# Test Parameters: human
CC50 values by entry
Express your answer in µM, writing the number without its unit.

- Molecule: "CC(C)CCOC(=O)C[C@H](NP(=O)(OC[C@@]1(F)O[C@@](C#N)(c2ccc3c(N)ncnn23)[C@H](O)[C@@H]1O)Oc1ccccc1)C(=O)OCCC(C)C (some centres unmarked)"
  Unit Info: "µM"
  Measured: 14

Then this molecule:
Q: # CC50 lookup, item CCC(CC)COC(=O)[C@@H](C)NP(=O)(OC[C@H]1O[C@@](C#N)(c2ccc3c(N)ncnn23)[C@H](O)[C@@H]1O)Oc1ccccc1 (some centres unmarked) [Compound C1, reference compound]
A: 51

----------
# Measurement Notes: in vitro
# Test Parameters: human
CC50 values by entry

Q: # CC50 lookup, item C[C@H](NP(=O)(OC[C@@]1(F)O[C@@](C#N)(c2ccc3c(N)ncnn23)[C@H](O)[C@@H]1O)Oc1ccccc1)C(=O)OCC(C)(C)C (stereo partly drawn) [Compound 8]
A: > 100 µM

Q: # CC50 lookup, item CC(C)OC(=O)[C@H](C)NP(=O)(OC[C@@]1(F)O[C@@](C#N)(c2ccc3c(N)ncnn23)[C@H](O)[C@@H]1O)Oc1ccccc1 (stereo partly drawn) [Compound 6]
A: > 100 µM

Q: # CC50 lookup, item CCC(CC)COC(=O)[C@@H](C)NP(=O)(OC[C@@]1(F)O[C@@](C#N)(c2ccc3c(N)ncnn23)[C@H](O)[C@@H]1O)Oc1ccccc1 (stereo partly drawn) [Compound 9]
A: ~50 µM
